- Test system: M14 melanoma
- TEST_PROTOCOL: NCI tumour cell line growth inhibition, 48 h
MEASURE_NAME: GI50

// solved cases for GI50 follow
O=C1/C(=C\c2ccc(F)cc2)CN(C(=O)c2ccccc2F)C/C1=C\c1ccc(F)cc1	1510 nM
NC(=O)c1c(NC(=O)c2cccs2)sc2c1CCC(=O)C2	3730 nM
Oc1ccc2c(=S)cc(-c3ccc(Br)cc3)oc2c1O	2010 nM
CCN(CC)CCNC(=O)c1cccc2c1-c1ccccc1C2=O	> 100000 nM
CCc1nc(C)cn1C(=O)OCc1nc2nc(Cl)nc(N3CCOCC3)c2[nH]1	1270 nM

Record C=C1C(=O)O[C@H]2[C@H]1CC/C(COC(=O)c1cccnc1N)=C\CC[C@@]1(C)O[C@@H]21 ; system M14 melanoma; GI50 = 1120 nM

###

- Test system: ACHN renal
- TEST_PROTOCOL: NCI tumour cell line growth inhibition, 48 h
MEASURE_NAME: GI50

So for CCN(CC)CCNC(=O)c1cccc2c1-c1ccccc1C2=O , the logged GI50 turned out to be > 100000 nM

So for c1ccc(-c2[nH]ncc2-c2ccnc(-c3ccc(OCCN4CCOCC4)cc3)c2)nc1 , the logged GI50 turned out to be > 25000 nM

So for C=C1c2nc3ccccc3n2C=C(c2cccc(Cl)c2)N1Cc1ccc(OC)cc1 , the logged GI50 turned out to be 1110 nM

So for COc1cccc(Nc2ncnc3cc(NC(=O)CCl)ccc23)c1 , the logged GI50 turned out to be 1080 nM

So for O=C1C=C(NCCO)c2nccc3c2c1nc1ccccc13 , the logged GI50 turned out to be 16300 nM

So for C#C[C@@]1(O)[C@@H](CO)O[C@@H](n2cc(Br)c3c(Cl)ccnc32)[C@@H]1O , the logged GI50 turned out to be 1740 nM

###

- System: SNB-75 CNS
- TEST_PROTOCOL: NCI tumour cell line growth inhibition, 48 h
MEASURE_NAME: TGI

// solved cases for TGI follow
CCOP(=O)(C/C=C/Cn1ncc(=O)[nH]c1=O)OCC	> 100 µM
CC(=O)OCC1OC(n2c(C)c(C(C)=O)c(-c3ccco3)c(C#N)c2=S)C(OC(C)=O)C(OC(C)=O)C1OC(C)=O (configuration not stated)	82.1 µM
COc1cccc(Nc2ncnc3cc(NC(=O)CCl)ccc23)c1	2.28 µM
O=C(Oc1ccccc1)N(c1ccccc1)c1ccccc1	52.5 µM
CCOC(=O)C1=C(C)NC(=O)NC1c1ccc(OC)cc1OC (configuration not stated)	> 100 µM

Record COc1ccccc1-n1nnc2c(N)nc(N)nc21 ; system SNB-75 CNS; TGI = > 100 µM

Record CC1=CC(=O)N(c2cccc3c(N4C(=O)C=C(C)C4=O)cccc23)C1=O ; system SNB-75 CNS; TGI = > 100 µM

Record CCO/C(O)=C(/C(=N)N1CCOCC1)C(=O)NC(C)C ; system SNB-75 CNS; TGI = > 100 µM

Record C=C(COCO)C(C)=O ; system SNB-75 CNS; TGI = 30.5 µM

Record C=C1C(=O)O[C@H](c2ccoc2)C[C@@H]1[C@@]1(C)CCCC2(C)C(=O)OCC21 (some centres not stated) ; system SNB-75 CNS; TGI = > 100 µM

Record CCCCC(=O)N(c1ccc(Nc2c3ccccc3nc3cc([N+](=O)[O-])ccc23)cc1)S(C)(=O)=O ; system SNB-75 CNS; TGI = 64.8 µM

###

- Tested on: T-47D breast
- TEST_PROTOCOL: NCI tumour cell line growth inhibition, 48 h
Catalogue of TGI readings, one per entry.

CC[C@H](C)[C@@H]([C@@H](CC(=O)N1CCC[C@H]1[C@H](OC)[C@@H](C)C(=O)NCCc1ccccc1)OC)N(C)C(=O)C(NC(=O)[C@H](C(C)C)N(C)C)C(C)C (some centres undefined)	> 10 µM

So for CC(=O)OCC1(C)C(O)CCC2(C)C1CCC1CC3CC12CCC3(O)CO (centres undefined) , the logged TGI turned out to be > 100 µM

So for CCCC(=O)OCC1OC(n2cc(F)c(=O)[nH]c2=O)CC1O (centres undefined) , the logged TGI turned out to be > 10 µM

So for C/C(=N\NC(=O)c1ccncc1)c1sc(-n2nc(-c3ccccc3)cc2-c2ccccc2)nc1C , the logged TGI turned out to be > 31.6 µM

So for CCOC(=O)CN1C(=O)NC(C)(c2ccccc2)C1=O (centres undefined) , the logged TGI turned out to be > 100 µM

So for COc1cccc2c1C(=O)c1c(O)c3c(c(O)c1C2=O)C[C@@](O)(C(=O)CO)CC3OC1CC(N)C(OC2CCCCO2)C(C)O1 (some centres undefined) , the logged TGI turned out to be 0.925 µM

So for COc1cccc2c1C(=O)c1c(O)c3c(c(O)c1C2=O)C[C@@](O)(/C(CO)=N/NC(=O)CCCCCN1C(=O)C=CC1=O)C[C@@H]3O[C@H]1C[C@H](N)[C@H](O)[C@H](C)O1 , the logged TGI turned out to be 8.41 µM

So for COC(=O)[C@]12CC[C@@H](C)[C@H](C)[C@@H]1C1=CC[C@@H]3[C@@]4(C)C(C=O)=C[C@@](C)(CO)[C@@H]4[C@H](O)C[C@@]3(C)[C@]1(C)CC2 , the logged TGI turned out to be 13.2 µM

So for O=C(O)CCC(c1ccccc1)(c1ccccc1)c1ccccc1 , the logged TGI turned out to be > 60.3 µM

So for O=Cc1cn(CCCCCCCCn2cc(C=O)c3ccccc32)c2ccccc12 , the logged TGI turned out to be > 10 µM

So for CC1(C)OCC(CO)(CO)CO1 , the logged TGI turned out to be > 100 µM

So for NS(=O)(=O)c1nnc(NS(=O)(=O)c2ccccc2[N+](=O)[O-])s1 , the logged TGI turned out to be > 100 µM

So for c1ccc2sc(SSSc3nc4ccccc4s3)nc2c1 , the logged TGI turned out to be > 100 µM

So for COc1cc(-c2nn(-c3ccc(NC(=O)Nc4cc(C(F)(F)F)cc(C(F)(F)F)c4)cc3)cc2-c2ccncc2)ccc1Cl , the logged TGI turned out to be 7.77 µM

So for CCc1n[nH]c(=O)n1CC , the logged TGI turned out to be > 100 µM

So for CCN(CC)C1Oc2cc3c(cc2C(c2cc(OC)c(O)c(OC)c2)C1C)OCO3 (centres undefined) , the logged TGI turned out to be > 73.4 µM

So for CN1CCC2(CC1)N=C(SCC(=O)Nc1cnc3ccccc3c1)C(c1ccc(Br)cc1)=N2 , the logged TGI turned out to be 7.35 µM

So for Oc1ccc2c(=S)cc(-c3ccc(Br)cc3)oc2c1O , the logged TGI turned out to be 5.15 µM

So for C=C1c2nc3ccccc3n2C=C(c2ccccc2)N1c1ccc(Cl)cc1 , the logged TGI turned out to be > 100 µM

###

- Tested on: SW-620 colon
- TEST_PROTOCOL: NCI tumour cell line growth inhibition, 48 h
MEASURE_NAME: TGI

COC(=O)C1=CC2C(=O)OC1C1C(=O)NC(=O)C21 (stereo unspecified)	> 100 µM

Lab note: next compound to report on.
So for CCN1CCN(c2nc(C)cc(NCc3cc(Nc4ccnc5cc(Cl)ccc45)ccc3F)n2)CC1 , the logged TGI turned out to be 4.81 µM

###

- Test system: HOP-92 NSCLC
- TEST_PROTOCOL: NCI tumour cell line growth inhibition, 48 h
Catalogue of TGI readings, one per entry.
// units = µM; emit number, no label

// solved cases for TGI follow
O=C(/C=C/c1ccc(Cl)c(Cl)c1)c1ccccc1Cl	31.7
COc1ccc(N2C(=O)C(Cl)C2c2cc3cc(Br)ccc3nc2Cl)cc1 (centres undefined)	18.3
O=S1(=O)c2ccccc2N(c2ccccc2)c2nnnn21	88.7
COCn1cc(C2=C(C)C(=O)C(C)=C(C)C2=O)cn1	37.5
Cc1ccc(C[As+](c2ccccc2)(c2ccccc2)c2ccccc2)cc1	0.961

So for Cc1ccc(N2C(=O)C3c4[nH]c5ccc(C)cc5c4C4CCC(C(C)(C)C)CC4C3C2=O)cc1 (centres undefined) , the logged TGI turned out to be 52.1

So for COc1cccc(Nc2ncnc3cc(NC(=O)CCl)ccc23)c1 , the logged TGI turned out to be 3.4

###

Catalogue of TGI readings, one per entry.
- Tested on: IGROV1 ovarian
- TEST_PROTOCOL: NCI tumour cell line growth inhibition, 48 h

Cc1cc(N2CCOCC2)nc2ccc(Cc3ccc4nc(N5CCOCC5)cc(C)c4c3)cc12	> 100 µM
Cc1cc(=O)oc2c1cc1ccc3cccc4ccc2c1c34	> 100 µM
C[P+]1(Cc2ccccc2)CCCC1	> 100 µM

So for C[C@@H]1S[C@H](c2c(F)cccc2Cl)n2c1nc1ccccc12 , the logged TGI turned out to be 59.5 µM

So for C[C@]12CC[C@H](O[C@@H]3O[C@H](CO[C@@H]4O[C@H](CO)[C@@H](O)[C@H](O)[C@H]4O)[C@@H](O)[C@H](O)[C@H]3O)C[C@@H]1CC[C@@H]1[C@@H]2CC[C@]2(C)[C@@H](C3=CC(=O)OC3)CC[C@]12O , the logged TGI turned out to be 56.3 µM

So for C=C1N(S(=O)(=O)c2ccc(C)cc2)C(=O)OCC12CCCC2 , the logged TGI turned out to be > 100 µM
